# System: INS-1E rat beta cells, no cytokines, CellTiter-Glo ATP, 48 h
# Procedure Text: cytokine-free beta-cell viability effect – INS-1E rat cells, ATP luminescence, cherry pick, counter-screen for beta-cell apoptosis protection project, dose response (AID 463229)
Observed Property: AC50

{"Compound": "Cc1cc(C(=O)NC2CCCc3c2cnn3-c2cccc(C)c2C)n(C)n1 (stereo not drawn)", "Observed Property": "AC50", "Recorded Result": "0.342 µM"}
{"Compound": "CC(NCC(O)COCCC12CC3CC(CC(C3)C1)C2)c1ccccc1 (stereo not drawn)", "Observed Property": "AC50", "Recorded Result": "8.29 µM"}
{"Compound": "CC(C)c1ccc2c(c1)C(N1CCNCC1)Cc1ccc(F)cc1S2 (stereo not drawn)", "Observed Property": "AC50", "Recorded Result": "14.6 µM"}
{"Compound": "COc1ccc(C(=O)N/N=C/c2ccccc2OC(=O)c2ccccc2)cc1", "Observed Property": "AC50", "Recorded Result": "7.93 µM"}

[ask] For `COc1cccc(N=Nc2ccc3cccnc3c2O)c1` , write its AC50.
[reply] 6.8 µM

[ask] For `Oc1c(N=Nc2ccccn2)ccc2ccccc12` , write its AC50.
[reply] 1.86 µM

[ask] For `Cc1cc(-c2ccccc2)cc(-c2ccccc2)[n+]1CCc1ccccc1` , write its AC50.
[reply] < 0.195 µM

[ask] For `O=C(Nc1nc(-c2ccccn2)cs1)c1cccc(-n2cnnn2)c1` , write its AC50.
[reply] 7.05 µM

[ask] For `O=C(/C=C/c1ccccc1)NC(=S)NNC(=O)c1cnccn1` , write its AC50.
[reply] 5.91 µM

###

# Tested on: INS-1E rat beta cells, no cytokines, CellTiter-Glo ATP, 48 h
# Procedure Text: cytokine-free beta-cell viability effect – INS-1E rat cells, ATP luminescence, cherry pick, counter-screen for beta-cell apoptosis protection project, dose response (AID 463229)
Recorded AC50 values for a group of compounds are listed next.

Worked cases, AC50 given:
{"Compound": "NC(N)=N/N=C/c1ccc(OCc2ccccc2)cc1", "AC50": "14.7 µM"}
{"Compound": "CN(C)S(=O)(=O)c1cccc(NC(=S)N/N=C/c2cc(Br)ccc2O)c1", "AC50": "2.72 µM"}
{"Compound": "Cc1ccc(-c2c[n+](Cc3ccc(Cl)cc3)c3n2CCC3)cc1", "AC50": "7.79 µM"}

Proceed to the following item.
[ask] For `CC(C)(C)c1cc(C=C(C#N)C#N)cc(C(C)(C)C)c1O` , write its AC50.
[reply] 0.984 µM

###

# System: INS-1E rat beta cells, no cytokines, CellTiter-Glo ATP, 48 h
# Procedure Text: cytokine-free beta-cell viability effect – INS-1E rat cells, ATP luminescence, cherry pick, counter-screen for beta-cell apoptosis protection project, dose response (AID 463229)
Observed Property: AC50

{"Chemical Smiles": "O=C(OCCOc1cccc(Cl)c1)c1cc(S(=O)(=O)N2CCCCC2)ccc1N1CCOCC1", "AC50": "7.78 µM"}

[ask] For `O=C(O)CCCC(=O)Nc1ccc(C(=O)NCc2cccnc2)cc1` , write its AC50.
[reply] 4.54 µM

[ask] For `Cc1ccnc2c1ccc1c(C)ccnc12` , write its AC50.
[reply] 3.39 µM

[ask] For `C=C[C@H](Cc1ccccc1)N(Cc1ccccc1)S(=O)(=O)N(Cc1ccccc1)[C@H](C=C)Cc1ccccc1` , write its AC50.
[reply] 4.79 µM

[ask] For `FC(F)(F)c1ccccc1NC(=S)N1CCN(Cc2ccc3c(c2)OCO3)CC1` , write its AC50.
[reply] 7.35 µM

###

# Test system: INS-1E rat beta cells, no cytokines, CellTiter-Glo ATP, 48 h
# Procedure Text: cytokine-free beta-cell viability effect – INS-1E rat cells, ATP luminescence, cherry pick, counter-screen for beta-cell apoptosis protection project, dose response (AID 463229)
Observed Property: AC50

Worked cases, AC50 given:
{"Molecule": "COc1cccc2sc(Nc3nc(-c4ccccn4)cs3)nc12", "AC50": "3.75 µM"}
{"Molecule": "Cc1ccc(C(C)C)c(OCc2ccc(C(=O)N/N=C/c3ccc(O)cc3O)cc2)c1", "AC50": "3.99 µM"}
{"Molecule": "c1ccc2c(c1)OCC(CNc1ncnc3sccc13)O2 (configuration not stated)", "AC50": "1.6 µM"}
{"Molecule": "CCC(=O)NC(c1ccc(Cl)cc1Cl)c1ccc2cccnc2c1O (configuration not stated)", "AC50": "2.34 µM"}
{"Molecule": "Cc1cc(C(=O)C(C)OC(=O)c2ccc(NC(=O)CC#N)cc2)c(C)n1-c1ccc(OC(F)F)cc1 (configuration not stated)", "AC50": "8.14 µM"}
{"Molecule": "Cc1ccc(-c2nn(-c3ccccc3)cc2/C=C/C(=O)Nc2cccc(S(N)(=O)=O)c2)cc1", "AC50": "2.75 µM"}
{"Molecule": "Nc1c(C(=O)Nc2ccc3c(c2)OCCO3)nnn1Cc1ccccc1Cl", "AC50": "5.53 µM"}
{"Molecule": "COc1ccc(/C=C/C(=O)c2ccc([N+](=O)[O-])o2)cc1OC", "AC50": "4.93 µM"}
{"Molecule": "Cc1ccc(S(=O)(=O)Nc2cc(Cl)c(O)c3ncccc23)cc1", "AC50": "4.38 µM"}
{"Molecule": "CCO[C@H]1OC(C(=O)N2CCN(Cc3ccc4c(c3)OCO4)CC2)=C[C@@H](c2csc3ccccc23)[C@@H]1CCCO", "AC50": "6.01 µM"}

Proceed to the following item.
[ask] For C=C1C(O)[C@@H]2O[C@]3(CC[C@H](/C=C/C(C)[C@@H]4CC(C)=CC5(O[C@H](C[C@@](C)(O)CO)CCC5O)O4)O3)CC[C@H]2O[C@@H]1C(O)CC(C)[C@H]1OC2(CCCCO2)CCC1C (some centres not stated) , write its AC50.
[reply] 10.7 µM

###

# Test system: INS-1E rat beta cells, no cytokines, CellTiter-Glo ATP, 48 h
# Procedure Text: cytokine-free beta-cell viability effect – INS-1E rat cells, ATP luminescence, cherry pick, counter-screen for beta-cell apoptosis protection project, dose response (AID 463229)
Observed Property: AC50

Worked cases, AC50 given:
{"Compound": "CS(=O)(=O)N(CC(=O)Nc1ccc(CC#N)cc1)c1ccc(C23CC4CC(CC(C4)C2)C3)cc1", "AC50": "7.41 µM"}
{"Compound": "CC1(C)N=C(N)N=C(N)N1c1ccc(OCCCOc2ccccc2)c(Cl)c1", "AC50": "0.913 µM"}

[ask] For `Cc1ccc(S(=O)(=O)Nc2ccc(NC(=O)Nc3cccc(C(F)(F)F)c3)cc2)cc1` , write its AC50.
[reply] 11.9 µM

[ask] For `CCOc1ccc(C(=O)c2cc([N+](=O)[O-])ccc2N2CCOCC2)cc1` , write its AC50.
[reply] 0.371 µM

[ask] For `c1ccc(CSc2ccc(-c3ccccn3)nn2)cc1` , write its AC50.
[reply] 18.8 µM

[ask] For `COc1cc(SC#N)ccc1N=Cc1c(C)[nH]n(-c2ccc(C)cc2)c1=O` , write its AC50.
[reply] 8.46 µM

[ask] For `CCN(CC)c1ccc(/C=N/NC(=O)c2cccc(S(=O)(=O)N3CCOCC3)c2)c(O)c1` , write its AC50.
[reply] 2.12 µM

[ask] For CCCCCCCNC1=CC(=O)CC(c2ccccc2)C1 (stereo unspecified) , write its AC50.
[reply] 9.84 µM

[ask] For `COc1cc(C)c(C(=O)CC(=O)c2c(C)cc(OC)cc2C)c(C)c1` , write its AC50.
[reply] 13.7 µM

[ask] For C=C1C(=O)O[C@@H]2C[C@@H](C)[C@@H]3C4OC4C(=O)[C@@]3(C)[C@@H](O)[C@H]12 (stereo partly specified) , write its AC50.
[reply] 7.57 µM

[ask] For `C/C(=N\NC(=O)c1c(C)nc2ccccn12)c1ccc(O)cc1O` , write its AC50.
[reply] 19.5 µM

[ask] For `Oc1ccccc1/C=N/Nc1ncc(Br)cn1` , write its AC50.
[reply] 19.7 µM

###

# Test system: INS-1E rat beta cells, no cytokines, CellTiter-Glo ATP, 48 h
# Procedure Text: cytokine-free beta-cell viability effect – INS-1E rat cells, ATP luminescence, cherry pick, counter-screen for beta-cell apoptosis protection project, dose response (AID 463229)
Recorded AC50 values for a group of compounds are listed next.

Worked cases, AC50 given:
{"Chemical Smiles": "Oc1ccc2ccccc2c1/C=N/Nc1nnc(-c2ncc[nH]2)c2ccccc12", "AC50": "3.39 µM"}
{"Chemical Smiles": "CCCCCCn1c(=O)c(C(=O)Nc2ncccc2C)c(O)c2ccccc21", "AC50": "5.5 µM"}
{"Chemical Smiles": "CCOc1ccc(CN2CCN(Cc3c[nH]c4ccccc34)CC2)cc1", "AC50": "7.75 µM"}

Proceed to the following item.
[ask] For `CNC[C@H](CC1CCCCC1)NC[C@H](Cc1ccccc1)NCCC12CC3CC(CC(C3)C1)C2` , write its AC50.
[reply] 4.44 µM

Just for reference, PubChem BioAssay AID463229 is where these values come from.
